Cited source: PubChem BioAssay (NCI)

- Tested on: SK-MEL-2 melanoma
- assayMethodText: NCI tumour cell line growth inhibition, 48 h
Recorded TGI by entry
Report only the number, with the unit µM understood.

Example cases with answers are listed next.
1. c1ccc([P+](c2ccccc2)(c2ccccc2)c2ccc3c4ccc([P+](c5ccccc5)(c5ccccc5)c5ccccc5)c5cccc(c6cccc2c63)c54)cc1 = 7.58
2. CNCC(=O)Nc1ccc2c(c1)C(=O)c1ccc(NC(=O)CNC)cc1C2=O = 11.7
3. COc1cc2c3c(n(CCCNCCNCCN)c(=O)c2cc1OC)-c1cc2c(cc1C3=O)OCO2 = 17.4
4. C[C@@]1(Br)C[C@@](C)(Cl)[C@@H](Br)CC1/C=C/Cl (stereo partly drawn) = 33.2
5. N#Cc1c(-c2ccccc2)cc(-c2ccccc2)n(CCCC(=O)NO)c1=O = 10

Entry O=C1c2[nH]c3ccccc3c2CCN2CCCCC12 (stereo not drawn) : reported TGI = ?
36.3

Query O=c1c(-c2ccccc2)c2n(c3ccccc13)CCN2 next
61.1

* * *

- Test system: OVCAR-8 ovarian
- assayMethodText: NCI tumour cell line growth inhibition, 48 h; in the data active = GI50 below about 0.43 µM; inactive = the rest
Just give me one of these, please: active, inactive

1) O=C(Nc1nc(-c2ccc(Cl)cc2)cs1)c1cc(-c2ccc(Br)cc2)nc2ccc(Cl)cc12 = inactive
2) Nc1nonc1C(=Nc1ccc(F)c(Cl)c1)NO = inactive

Please indicate how the test categorized CC1(C)CN(c2cc(C(F)(F)F)cc3cncn23)CCC12NC(=O)NC2=O (centres undefined) .
inactive

Query C=C(CNCCc1ccc(O)cc1)[C@@H]1CC[C@]2(CO)CC[C@]3(C)[C@H](CC[C@@H]4[C@@]5(C)CCC(NCCc6ccc(O)cc6)C(C)(C)[C@@H]5CC[C@]43C)[C@@H]12 (some centres undefined) next
inactive

Query CCn1c(=O)c(Oc2ccc(F)cc2F)cc2cnc(NC3CCOCC3)nc21 next
inactive

Query c1cc2c(s1)SSSSS2 next
inactive

Query COC(=O)[C@@H](C)C[C@H](Cc1ccc2ccccc2c1)NC(=O)c1csc([C@@H](C[C@H](C(C)C)N(C)C(=O)[C@@H](NC(=O)[C@H]2CCCCN2C)C(C)C)OC(C)=O)n1 next
active

Query NCCCCCCCCCCn1c2c(c3ccccc3c1=O)C(=O)c1ccccc1-2 next
inactive

Query CC(C)=CCC/C(C)=C/CC/C(C)=C/CC/C(C)=C/CSC[C@H](NC(=O)CCCCCN1CCN(C)CC1)C(=O)NC1CCCCC1 next
inactive

Query COc1cc2c(cc1I)-c1c(cc(OC)c(OC)c1OC)CC[C@@H]2NC(C)=O next
inactive

* * *

- Test system: SR leukemia
- assayMethodText: NCI tumour cell line growth inhibition, 48 h
assayMetric: TGI

Entry CNc1ccccc1-c1nc2ccccc2c(=O)o1 : reported TGI = ?
> 100 µM

Query O=C1Nc2ccccc2/C1=C\c1c(Cl)nc2sccn12 next
> 100 µM

Query CCN(CC)CCNc1ccc2nnn3c4ccc([N+](=O)[O-])cc4c(=O)c1c23 next
> 33.6 µM

* * *

- Tested on: U251 CNS
- assayMethodText: NCI tumour cell line growth inhibition, 48 h
Recorded TGI by entry

1) O=C(CSc1nnc(SCC(=O)NN=C2CCCCC2)s1)NN=C1CCCCC1 = > 100 µM
2) COc1ccc(/C(=N/O)C(c2ccc(OC)cc2)C2C(=O)Oc3ccccc32)cc1 (stereo unspecified) = > 100 µM
3) CCC(=O)/C=C/c1ccccc1 = > 100 µM
4) NC1CCCCC1N.Nc1c(N=Nc2ccc(-c3ccc(N=Nc4cc(S(=O)(=O)[O-])c5ccccc5c4N)cc3)cc2)cc(S(=O)(=O)[O-])c2ccccc12.[OH3+].[OH3+].[Pt+4] = > 100 µM
5) CC(=O)OC1C2CCC1C1C2N=NN1c1ccc([N+](=O)[O-])cc1 (stereo unspecified) = > 100 µM
6) CNC(=O)NCC1OC(n2cnc3c(NC(=O)Nc4ccccc4)ncnc32)C(O[Si](C)(C)C(C)(C)C)C1CC(=O)N(C)OC (stereo unspecified) = > 100 µM
7) CCCCCC(=O)N[C@H]1CCc2cc(O)c(O)c(O)c2-c2ccc(SC)c(=O)cc21 = > 73.8 µM
8) COc1cc(/C=N/n2c(-c3ccccc3)n[nH]c2=O)cc(OC)c1OC = > 42.3 µM
9) COc1cccc(/C=N/[N-]C(=O)c2ccncc2)c1[O-].[Ni+2].[OH3+] = > 100 µM
10) CC1=C(O)C(=O)C(C2=C(O)C(=O)C(C)=C(O)C2=O)=C(O)C1=O = > 100 µM

Entry OC(c1ccoc1)c1cc2ccccc2s1 (stereo unspecified) : reported TGI = ?
> 10 µM

Query Cc1nn(C(=O)c2ccccc2O)c2c1C(c1ccc3ccccc3c1O)SC(N)=N2 (stereo unspecified) next
> 10 µM

Query COc1ccc(CC#C/C=C/C(=O)NCC(C)C)cc1 next
> 100 µM

Query C=Cc1nc2nnc(CCCCCCCCc3nnc4nc(C=C)[nH]n34)n2[nH]1 next
> 100 µM

Query CCn1c(=O)c(Oc2ccc(F)cc2F)cc2cnc(NC3CCOCC3)nc21 next
> 25 µM

Query Cn1ccc(=O)c2c(O)c3ccccc3c(O)c21 next
> 100 µM

Query O=C(c1ccccc1)N1CCN2CCN=C(c3ccccc3)C21c1ccccc1 (stereo unspecified) next
> 100 µM

Query C[n+]1c(-c2ccccc2)c2cc(N)ccc2c2ccccc21 next
> 44.3 µM

Query CS(=O)(=O)O[C@H]1C(=O)N(c2cc3c4ccccc4ccc3c3ccccc23)[C@@H]1c1ccccc1 next
> 100 µM

Query CCCCCCCCCCCCCC(=O)OC1C(O)C(CO)OC(OC)C1NC(=O)N(CCCl)N=O (stereo unspecified) next
> 100 µM

Query C1CSC(Sc2nc(SC3=NCCS3)nc(SC3=NCCS3)n2)=N1 next
> 100 µM
